System: Mus musculus
METHOD NOTES: Antidepressant activity against reserpine-induced hypothermia CFLP mouse model assessed as change in esophageal temperature at 5 mg/kg, po treated before 2 to 24 hrs of reserpine challenge
Type: functional, organism-based
Parameters: dose 5 mg/kg
Just a reminder that ties go to N: only deltaT strictly below 9 °C counts as Y.

These solved cases illustrate the format of a correct answer.
Br.CN(C)CC(O)C(c1ccccc1)c1ccccc1 (stereo unspecified) : Y
CC(=O)OC(CN(C)C)C(c1ccccc1)c1ccccc1 (stereo unspecified) : N
CN(C)CC(O)C(c1ccccc1)c1ccc(F)cc1 (stereo unspecified) : Y
CNCC(O)C(c1ccccc1)c1ccccc1Cl (stereo unspecified) : Y

Asked: Lab note: confirm whether the reported deltaT for this compound is below 9 °C, equality not counting. compound: CN(C)CC(O)C(c1ccccc1)c1cccc(Br)c1.Cl (stereo unspecified)
Given back: N

====

Organism: Mus musculus
METHOD NOTES: Anticholinergic effect in CFLP mouse assessed as mydriasis
EXPERIMENTAL CONTEXT: in vivo
ATTRIBUTE MEASURED: ED50 (mg/kg)
Write down the numeric answer in mg/kg and omit the unit.

Worked examples, 2 compounds total:
CN(C)CC(O)C(c1ccccc1)c1cccc(Cl)c1.Cl (centres undefined) : 42
CN(C)CC(O)C(c1ccccc1)c1ccccc1Cl.Cl (centres undefined) : 29

Value of ED50 reported for the compound CN(C)CC(O)C(c1ccccc1)c1ccc(Cl)cc1.O=C(O)CCC(=O)O (centres undefined) is 40

Short answer for CN(C)CC(O)C(c1ccccc1)c1ccc(F)cc1 (centres undefined) : ED50 was 26
